Reference source for all entries: patent US20230159467A1

Target chain: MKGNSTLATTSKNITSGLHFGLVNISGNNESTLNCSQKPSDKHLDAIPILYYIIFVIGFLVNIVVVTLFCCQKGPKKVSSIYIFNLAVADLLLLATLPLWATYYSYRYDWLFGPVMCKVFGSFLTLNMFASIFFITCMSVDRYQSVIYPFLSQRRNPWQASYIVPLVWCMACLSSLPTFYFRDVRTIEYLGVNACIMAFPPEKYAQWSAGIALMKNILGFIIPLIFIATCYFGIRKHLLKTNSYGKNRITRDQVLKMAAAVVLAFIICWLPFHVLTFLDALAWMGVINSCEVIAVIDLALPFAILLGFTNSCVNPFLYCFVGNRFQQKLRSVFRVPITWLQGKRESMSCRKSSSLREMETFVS
measured-property: Ki (nM)

INSERT INTO results (compound, measured_property, measurement) VALUES
  ('CCCCOC(=O)[N-]S(=O)(=O)c1sc(CC(C)C)cc1-c1ccc(Cn2ccnc2C(C)(C)C)cc1.[K+] [Example 11B]', 'Ki', 6.6),
  ('CCCCOC(=O)NS(=O)(=O)c1ccc(CC(C)C)cc1-c1ccc(Cn2ccnc2-c2nccs2)cc1 [Example 35B]', 'Ki', 6.7);

A = COC(=O)NS(=O)(=O)c1ccc(CC(C)C)cc1-c1ccc(Cn2ccnc2C2CC2)cc1 [Example 39A]
B = CCCCOC(=O)NS(=O)(=O)c1sc(CCC)nc1-c1ccc(Cn2ccnc2-c2nccs2)cc1 [Example 21]
Query: Lab log: flag the item ( A or B ) with the smaller Ki figure. Your choice should be expressed through its label.
Response: A
(A: 4.8 nM, B: 350 nM)
